Data credit: PubChem BioAssay (NCI)

Tested on: OVCAR-3 ovarian
Measurement Description: NCI tumour cell line growth inhibition, 48 h; in the data active means GI50 below about 0.43 µM; inactive means the rest
Your response should consist of one outcome taken from Y = active, N = inactive

Worked examples follow.
Molecule	Label
COc1ccc(OC)c(C2SCC(=O)N2NC(=O)C(O)c2ccccc2)c1 (stereo unspecified)	N
COc1ccc2c(c1OC)C(=O)OC2C1c2c(c([N+](=O)[O-])c3c(c2OC)OCO3)CCN1C (stereo unspecified)	N
C[C@@H]1O[C@@H](OC[C@H]2O[C@@H](OCCc3ccc(O)c(O)c3)[C@H](O)[C@@H](O)[C@@H]2OC(=O)/C=C/c2ccc(O)c(O)c2)[C@H](O)[C@H](O)[C@H]1O	N
CN1CCN(Cc2ccc(NC(=O)c3[nH]ncc3Nc3ncnc4sc5c(c34)CCCC5)cc2)CC1	Y
O=[N+]([O-])c1cc(S(=O)(=O)Oc2ccccc2)ccc1Cl	N

Now look at this entry.
Q: GET /call?item= CC(C)(C)c1ccc(C(=O)Nc2sc3c(c2C(N)=O)CCC(=O)C3)cc1 returns the recorded outcome of this test.
A: Y

----------
Test system: CCRF-CEM leukemia
Measurement Description: NCI tumour cell line growth inhibition, 48 h; in the data active means GI50 below about 0.43 µM; inactive means the rest
Your response should consist of one outcome taken from yes for active, no for inactive

Molecule	Label
CC1=CC(=O)C(O)C2(C)C1CC(O)C13COC4(C)C(OC(=O)C41)C(O)C23 (stereo not drawn)	no
CCCCn1c(=O)c2c(nc3n2CCCN3CCc2ccc(OCC(=O)NCCN(CC)CC)cc2)n(CCCC)c1=O	no
CC(C)=CCC/C(C)=C/CC/C(C)=C/CC/C=C(\C)CC/C=C(\C)CCC(=O)Nc1ccn(C2OC(CO)C(O)C2(F)F)c(=O)n1 (stereo not drawn)	yes

Q: GET /call?item= CCCCCn1sc(=O)n(Cc2ccc(CNC(=O)OCc3ccc4cccc(O)c4n3)cc2)c1=O returns the recorded outcome of this test.
A: no

Q: GET /call?item= COC1O[C@@H]2C[C@H]3C(C)(C)CCC[C@]3(C)C3=CCCC1[C@@]32C (stereo partly drawn) returns the recorded outcome of this test.
A: no

Q: GET /call?item= CN(CCCCCl)P(=O)(OCCS(=O)(=O)CC(NC(=O)CCC(N)C(=O)O)C(=O)NC(C(=O)O)c1ccccc1)OCC1OC(n2cc(F)c(=O)[nH]c2=O)CC1O (stereo not drawn) returns the recorded outcome of this test.
A: yes

Q: GET /call?item= CC(C)(C)CN1CCn2c(nc3c(N)nccc32)S1 returns the recorded outcome of this test.
A: no

Q: GET /call?item= CC(C)(C)c1ccc(C(=O)Nc2sc3c(c2C(N)=O)CCC(=O)C3)cc1 returns the recorded outcome of this test.
A: yes

Q: GET /call?item= COc1ccc2c(c1)OC1=C(C(=O)OC1)C2c1cc(OC)c2c(c1)OCO2 (stereo not drawn) returns the recorded outcome of this test.
A: yes

----------
Field: TGI. Provide a value for each of the compounds that follow.
Test system: HS 578T breast
Measurement Description: NCI tumour cell line growth inhibition, 48 h
Where a SMILES comes first, the peptide text is derived from it. [ ]: non-standard residue; d: D form. The star is where a group is joined. mTyr = N[CH](Cc1cccc(O)c1)C(=O)O; Cbz = O=C(OCc1ccccc1)*; OBn = c1ccc(CO*)cc1

Some entries whose results are on file:
Compound	TGI
CCCCCn1sc(=O)n(Cc2ccc(CNC(=O)OCc3ccc4cccc(O)c4n3)cc2)c1=O	6.73 µM
C[C@@H]1O[C@@H](O[C@H]2CC[C@@]3(C)[C@H](CCC4[C@@H]3C(O)C[C@]3(C)[C@@H](c5ccc(=O)oc5)CC[C@]43O)C2)[C@H](O)[C@H](O)[C@H]1O (some centres not stated)	0.0659 µM
COc1ccc(-c2cc(=O)c3c(OC)c(OC)c(OC)c(OC)c3o2)cc1	> 100 µM
OC(c1cc2cc(Cl)c(Cl)cc2c2cc(C(F)(F)F)ccc12)C1CCCCN1 (configuration not stated)	3.27 µM
CC(C)(CC(O)C#N)/[N+]([O-])=[N+](\[O-])C(C)(C)CC(O)C#N (configuration not stated)	> 100 µM

For every record below, what is its TGI?
1. COC(=O)C(Cc1cccc(O)c1)NC(=O)C(CC(=O)OCc1ccccc1)NC(=O)OCc1ccccc1 (configuration not stated) (Cbz-Asp(OBn)-[mTyr]-OMe; configuration not given here)
2. CCN(Cc1ccc(Cl)s1)c1ccc(CO)c(Cl)c1
3. CN1CCN(Cc2ccc(NC(=O)c3[nH]ncc3Nc3ncnc4sc5c(c34)CCCC5)cc2)CC1
4. CCOc1cc(NC(C)=O)ccc1C(=O)NN1C(=O)C(Cl)C1c1ccco1 (configuration not stated)
5. COC(=O)C1=C(C)N2[C@H](C(=O)O)CO[C@@]2(C)[C@H](C(=O)OC)[C@H]1c1cccc([N+](=O)[O-])c1
6. CC(C)(C)OC(=O)NCCC1CN(C(=O)c2ccccc2)c2ccccc21 (configuration not stated)

A:
1. > 100 µM
2. > 60.4 µM
3. 1.74 µM
4. 65.5 µM
5. > 100 µM
6. > 100 µM

For every record below, what is its TGI?
1. CCOC(=O)[C@H](Cc1ccc(O)cc1)N=C1[C@H]2CCC[C@]1(O)[C@@](C)([N+](=O)[O-])C2
2. Fc1ccccc1C1SCc2nc3cc4ccccc4cc3n21 (configuration not stated)
3. Cc1cccc(NC(=O)c2sc3nc4c(cc3c2N)CN(Cc2ccccc2)CC4)c1C
4. CCNC1=C(NC(=O)CC)C(=O)c2ccccc2C1=O

A:
["> 100 µM", "96.4 µM", "> 50 µM", "> 100 µM"]

----------
Test system: HOP-62 NSCLC
Measurement Description: NCI tumour cell line growth inhibition, 48 h
Field: TGI. Provide a value for each of the compounds that follow.

Compound	Measurement Target	Data Value
COc1ccc2oc(=N)c(C(=O)Nc3ccccn3)cc2c1	HOP-62 NSCLC	> 100 µM
COC1O[C@@H]2C[C@H]3C(C)(C)CCC[C@]3(C)C3=CCCC1[C@@]32C (stereo partly drawn)	HOP-62 NSCLC	> 100 µM
Cc1ccc(CC(C)N)cc1 (stereo not drawn)	HOP-62 NSCLC	> 100 µM
O=P1(Oc2ccccc2)C(c2ccccc2)C(c2ccccc2)=NN1c1ccccc1 (stereo not drawn)	HOP-62 NSCLC	71.3 µM

For every record below, what is its TGI?
1. CCC1(O)C(=O)OCc2c1cc1n(c2=O)Cc2cc3cc(N)ccc3nc2-1 (stereo not drawn)
2. C[C@@H]1O[C@@H](OC[C@H]2O[C@@H](OCCc3ccc(O)c(O)c3)[C@H](O)[C@@H](O)[C@@H]2OC(=O)/C=C/c2ccc(O)c(O)c2)[C@H](O)[C@H](O)[C@H]1O
3. Cn1c2ccccc2n2c(=O)c3c(c(C#N)c12)CCCC3
4. CNc1ccc(N)cc1C(=O)N1CCC[C@H]1CO
5. CCCCCCN(N)C(=O)CC#N

A:
1. 0.357 µM
2. > 100 µM
3. > 100 µM
4. > 100 µM
5. > 100 µM

For every record below, what is its TGI?
1. c1ccc(CSCCc2ccncc2)cc1
2. Fc1ccccc1C1SCc2nc3cc4ccccc4cc3n21 (stereo not drawn)
3. Cc1n[nH]c(=O)n1/N=C/c1ccc([N+](=O)[O-])o1
4. COc1ccc(/C=N/NC(=O)Cn2c(-c3ccc(S(C)(=O)=O)cc3)nc3cc(Cl)ccc32)cc1
5. COc1ccc(C(Cl)=C(c2ccc(OCCN(C)C)cc2)c2ccc(OCCN(C)C)cc2)cc1
6. c1ccc2c3c([nH]c2c1)C1CCCN1CC3 (stereo not drawn)

A:
["> 100 µM", "> 100 µM", "> 64.4 µM", "> 50 µM", "10.4 µM", "> 10 µM"]

For every record below, what is its TGI?
1. CCOc1ccc(-n2nnc3c(N)nc(N)nc32)cc1
2. Cc1cc2c(c(C(=O)O)c1C)-c1cccc(F)c1C2=O
3. O[C@H]1[C@H](O)[C@@H](O)[C@@]2(O)C[C@@H](O)[C@@H]1N2
4. CC1(O)OC(=O)C2=C1CCC1C2CCC2(C)C(O)CCC12 (stereo not drawn)
5. CN(C)c1ccc(N=Nc2ccncc2)cc1
6. O=C([CH-]C(=O)c1ccccc1)c1ccccc1.O=C([CH-]C(=O)c1ccccc1)c1ccccc1.[OH-].[OH-].[Ti+4]
7. Cc1cc(O)c(C(C)C)cc1C1(c2cc(C(C)C)c(O)cc2C)OC(=O)c2ccccc21
8. Brc1ccc(-c2cn3ccncc3n2)cc1

A:
1: > 100 µM; 2: > 100 µM; 3: > 100 µM; 4: > 100 µM; 5: > 100 µM; 6: > 100 µM; 7: 8.75 µM; 8: > 100 µM

For every record below, what is its TGI?
1. COc1cc(/C=C(/C#N)C(N)=O)ccc1O
2. CN(CCCCCl)P(=O)(OCCS(=O)(=O)CC(NC(=O)CCC(N)C(=O)O)C(=O)NC(C(=O)O)c1ccccc1)OCC1OC(n2cc(F)c(=O)[nH]c2=O)CC1O (stereo not drawn)
3. C[C@H]1C=C2[C@@H]3CC(C)(C(=O)O)CC[C@]3(C)CC[C@]2(C)[C@]2(C)CC[C@H]3C(C)(C)[C@@H](OC(=O)c4cccc5c(=O)c6ccccc6[nH]c45)CC[C@]3(C)[C@@H]12 (stereo partly drawn)

A:
["> 100 µM", "6.99 µM", "> 100 µM"]

For every record below, what is its TGI?
1. COc1cc2c(cc1OC)C1(c3ccc(Cl)cc3)ON=C(c3ccccc3)N1CS2 (stereo not drawn)
2. COc1ccc(OC)c(C2SCC(=O)N2NC(=O)C(O)c2ccccc2)c1 (stereo not drawn)
3. O=C(NC1CCCC1=O)c1ccccc1 (stereo not drawn)
4. Fc1cccc(C2SCc3nc4ccccc4n32)c1F (stereo not drawn)
5. CN(C)CC1CCCC1=O (stereo not drawn)
6. CN(C)CCC(/C=C/c1ccccc1)=N\Nc1ccc(Cl)cc1Cl

A:
1. > 100 µM
2. > 100 µM
3. > 100 µM
4. > 100 µM
5. 31.3 µM
6. 27.9 µM

For every record below, what is its TGI?
1. CCCCCCCCCCCCCP(=O)(O)NCC(N)=O
2. COc1ccc2c(c1)OC1=C(C(=O)OC1)C2c1cc(OC)c2c(c1)OCO2 (stereo not drawn)
3. CN1CCN(Cc2ccc(NC(=O)c3[nH]ncc3Nc3ncnc4sc5c(c34)CCCC5)cc2)CC1
4. CCC(c1c[nH]c2ccc(Br)cc12)c1c[nH]c2ccc(Br)cc12

A:
> 100 µM
> 100 µM
1.45 µM
22.3 µM

For every record below, what is its TGI?
1. CCOC(=O)c1ccc(C(=O)C(C(C)=O)C(=O)OC(C)(C)C)[nH]1 (stereo not drawn)
2. CC1(C)C2CCC13CS(=O)(=O)N1O[C@]13C(=O)O2 (stereo partly drawn)

A:
1: > 100 µM; 2: > 100 µM

For every record below, what is its TGI?
1. COc1ccc(/C=C2\CN(C)C/C(=C\c3ccc(OC)c(OC)c3OC)C2=O)c(OC)c1OC
2. CCN(CC)Cc1sc2nc3ccccc3n2c1-c1ccc(OC)cc1
3. CSC(=S)N/N=C(\C)c1cccc(C)n1
4. CN(CCCNC(=O)c1nn(-c2ccc(Cl)cc2Cl)c2c1Cc1ccccc1-2)CCCNC(=O)c1nn(-c2ccc(Cl)cc2Cl)c2c1Cc1ccccc1-2

A:
["0.84 µM", "> 100 µM", "6.98 µM", "3.09 µM"]

COC(=O)c1cnn2c1n[n+]([O-])c1ccccc12 has a reported TGI of > 100 µM
